# Study target: α1A-ARS (Homo sapiens, UniProt P35348)
# Sequence (P35348 whole entry): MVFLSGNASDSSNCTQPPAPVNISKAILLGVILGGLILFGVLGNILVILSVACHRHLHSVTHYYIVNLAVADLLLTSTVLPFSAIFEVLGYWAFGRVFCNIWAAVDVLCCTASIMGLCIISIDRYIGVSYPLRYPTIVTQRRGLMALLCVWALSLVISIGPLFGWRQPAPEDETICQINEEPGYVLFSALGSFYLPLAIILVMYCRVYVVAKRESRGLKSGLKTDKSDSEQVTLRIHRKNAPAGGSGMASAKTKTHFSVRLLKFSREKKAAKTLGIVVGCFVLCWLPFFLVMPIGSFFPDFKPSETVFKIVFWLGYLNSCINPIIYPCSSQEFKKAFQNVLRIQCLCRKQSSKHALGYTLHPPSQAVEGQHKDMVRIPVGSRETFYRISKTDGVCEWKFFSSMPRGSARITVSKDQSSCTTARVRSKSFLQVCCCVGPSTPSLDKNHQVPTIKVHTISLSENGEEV
# Experiment notes: Calcium flux assay (Calcium 6 dye) in cells expressing an α1-AR
# Type: cell-based
# Setup conditions: calcium flux, α1A-AR; mean of at least three experiments; read-out: Average PEC50
Observation type: EC50

Below, each entry is followed by its recorded EC50 result.
> print(dat)
                structure.as.smiles                            study.target     obs.value
1         CC(C)(C)c1ccccc1CC1=NCCN1  α1A-ARS (Homo sapiens, UniProt P35348)     > 1000 nM
2    FC(F)(F)Oc1cc(Cl)ccc1CC1=NCCN1  α1A-ARS (Homo sapiens, UniProt P35348)  10 to 977 nM
3  Cc1csc(-c2ccc(CC3=NCCN3)cc2Cl)n1  α1A-ARS (Homo sapiens, UniProt P35348)     > 1000 nM

Param readout= EC50; system= α1A-ARS (Homo sapiens, UniProt P35348); entry= Cc1cc(-c2cc(Cl)ccc2CC2=NCCN2)sn1 ; returns value. 10 to 977 nM

Param readout= EC50; system= α1A-ARS (Homo sapiens, UniProt P35348); entry= Clc1ccc(CC2=NCCN2)cc1-c1ncco1 ; returns value. 10 to 977 nM

Param readout= EC50; system= α1A-ARS (Homo sapiens, UniProt P35348); entry= Clc1cn(-c2cn[nH]c2)c2cc(CC3=NCCN3)ccc12 ; returns value. > 1000 nM

Param readout= EC50; system= α1A-ARS (Homo sapiens, UniProt P35348); entry= Cc1c(CC2=NCCN2)ccc(S(=O)(=O)C(F)(F)F)c1Cl ; returns value. > 1000 nM

Param readout= EC50; system= α1A-ARS (Homo sapiens, UniProt P35348); entry= Cc1cc(Cl)cc(Cl)c1CC1=NCCN1 ; returns value. 10 to 977 nM

Param readout= EC50; system= α1A-ARS (Homo sapiens, UniProt P35348); entry= Cc1c(CC2=NCCN2)ccc2[nH]ncc12 ; returns value. 10 to 977 nM

Param readout= EC50; system= α1A-ARS (Homo sapiens, UniProt P35348); entry= FC(F)c1ccc(CC2=NCCN2)c(Cl)c1 ; returns value. 10 to 977 nM

Just for reference, patent US20230312524A1 is where these values come from.
